Tested on: Klebsiella pneumoniae
Experiment Description: Antibacterial activity against Klebsiella pneumoniae 700603 by microdilution assay
Assay type: functional
Endpoint Name: MIC (µg/mL)
Response body: numeric value in µg/mL, unit text excluded.

Chem Smiles	Unit Tag	MIC
NC[C@H]1O[C@H](O[C@H]2[C@H](O)[C@@H](OCCCCc3ccc4ccccc4c3)[C@H](N)C[C@@H]2N)[C@H](N)[C@@H](OCCCCc2ccc3ccccc3c2)[C@@H]1O	µg/mL	32
CCCCCCCCCCCO[C@@H]1[C@@H](O)[C@H](O[C@H]2O[C@H](CN)[C@@H](O)[C@H](OCCCCCCC)[C@H]2N)[C@@H](N)C[C@H]1N	µg/mL	8
CCCCCCCCCCO[C@@H]1[C@@H](N)[C@@H](O[C@H]2[C@H](O)[C@@H](OCCCCCCCCCC)[C@H](N)C[C@@H]2N)O[C@H](CN)[C@H]1O	µg/mL	16
NC[C@H]1O[C@H](O[C@H]2[C@H](O)[C@@H](O)[C@H](N)C[C@@H]2N)[C@H](N)[C@@H](O)[C@@H]1O	µg/mL	32
CCCCCCCCO[C@@H]1[C@@H](N)[C@@H](O[C@H]2[C@H](O)[C@@H](OCCCCCCCC)[C@H](N)C[C@@H]2N)O[C@H](CN)[C@H]1O	µg/mL	8

Task item: MIC lookup needed for CCCCCCCO[C@@H]1[C@@H](N)[C@@H](O[C@H]2[C@H](O)[C@@H](OCCCCCCC)[C@H](N)C[C@@H]2N)O[C@H](CN)[C@H]1O , thanks.
Reply: 64

Task item: MIC lookup needed for CCCCCCCCCCCO[C@@H]1[C@@H](N)[C@@H](O[C@H]2[C@H](O)[C@@H](OCCCCCCCCCCC)[C@H](N)C[C@@H]2N)O[C@H](CN)[C@H]1O , thanks.
Reply: 32
